# measured on: T1, CD33 (UniProt P20138 18-364, limits assumed)
# T1 construct: whole, on cells; also called Siglec-3; CD33 on MOLM-13 cells
# experimental details: flow cytometry, MOLM-13 cells, anti-His-FITC detection
# Method: MOLM-13 cells were incubated with different CD33 BRIDGE variants at saturating concentrations. […] The MFI intensity correlates with the number of secondary antibodies bound to the CD33 BRIDGE variants that are only detected if they are bound to the MOLM-13 cells. MFI: median fluorescence intensity. BLItz: Bio-Layer interferometry (BLI) technology using HIS-tag identification tips. […] The higher the MFIR, the stronger the binding.
endpoint name: MFI HisTag FITC

CD33 BRIDGE variant B2 (Fab, V domains shown, Lintuzumab-based Fab bridging molecule) VH: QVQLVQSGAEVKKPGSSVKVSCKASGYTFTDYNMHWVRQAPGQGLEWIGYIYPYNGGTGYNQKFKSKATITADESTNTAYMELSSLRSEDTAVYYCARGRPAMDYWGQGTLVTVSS VL: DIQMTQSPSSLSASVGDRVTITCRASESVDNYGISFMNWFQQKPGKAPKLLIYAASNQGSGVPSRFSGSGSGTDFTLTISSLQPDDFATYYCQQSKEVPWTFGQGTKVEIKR	5.59
CD33 BRIDGE variant B14 (Fab, V domains shown, Lintuzumab-based Fab bridging molecule) VH: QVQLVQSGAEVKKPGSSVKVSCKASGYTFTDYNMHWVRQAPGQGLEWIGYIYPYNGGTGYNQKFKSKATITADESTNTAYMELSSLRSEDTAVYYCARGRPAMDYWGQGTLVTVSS VL: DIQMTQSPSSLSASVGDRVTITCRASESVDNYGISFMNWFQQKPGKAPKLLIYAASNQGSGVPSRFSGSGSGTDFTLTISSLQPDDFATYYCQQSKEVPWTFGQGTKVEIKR	6.68
CD33 BRIDGE variant B3 (Fab, V domains shown, Lintuzumab-based Fab bridging molecule) VH: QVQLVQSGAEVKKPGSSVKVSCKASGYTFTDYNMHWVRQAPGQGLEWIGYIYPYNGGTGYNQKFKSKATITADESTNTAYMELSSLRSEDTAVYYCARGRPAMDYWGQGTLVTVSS VL: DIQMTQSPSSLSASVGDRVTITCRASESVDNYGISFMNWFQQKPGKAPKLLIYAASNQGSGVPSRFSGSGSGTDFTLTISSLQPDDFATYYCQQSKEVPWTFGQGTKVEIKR	6.76
CD33 BRIDGE variant B8 (Fab, V domains shown, Lintuzumab-based Fab bridging molecule) VH: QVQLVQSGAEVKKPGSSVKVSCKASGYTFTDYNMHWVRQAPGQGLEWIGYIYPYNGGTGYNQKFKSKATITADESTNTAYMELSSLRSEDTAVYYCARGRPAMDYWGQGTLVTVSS VL: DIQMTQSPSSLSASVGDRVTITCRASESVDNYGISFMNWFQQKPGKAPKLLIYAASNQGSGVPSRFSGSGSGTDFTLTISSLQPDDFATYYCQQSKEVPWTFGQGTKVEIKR	6.53
CD33 BRIDGE variant B26 (Fab, V domains shown, Lintuzumab-based Fab bridging molecule) VH: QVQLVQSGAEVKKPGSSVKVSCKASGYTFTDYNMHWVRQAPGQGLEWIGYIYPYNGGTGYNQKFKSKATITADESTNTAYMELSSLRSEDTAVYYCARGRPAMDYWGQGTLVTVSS VL: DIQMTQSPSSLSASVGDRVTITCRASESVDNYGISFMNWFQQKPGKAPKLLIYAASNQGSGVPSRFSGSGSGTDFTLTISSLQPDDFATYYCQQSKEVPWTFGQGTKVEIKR	5.75
CD33 BRIDGE variant B13 (Fab, V domains shown, Lintuzumab-based Fab bridging molecule) VH: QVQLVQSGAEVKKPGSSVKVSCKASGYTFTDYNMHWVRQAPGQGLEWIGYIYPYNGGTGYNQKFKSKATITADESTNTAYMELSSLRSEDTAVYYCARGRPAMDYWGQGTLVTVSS VL: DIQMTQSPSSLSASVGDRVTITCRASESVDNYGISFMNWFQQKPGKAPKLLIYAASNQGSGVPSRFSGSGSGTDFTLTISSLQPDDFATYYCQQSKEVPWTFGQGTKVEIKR	6.78
CD33 BRIDGE variant B20 (Fab, V domains shown, Lintuzumab-based Fab bridging molecule) VH: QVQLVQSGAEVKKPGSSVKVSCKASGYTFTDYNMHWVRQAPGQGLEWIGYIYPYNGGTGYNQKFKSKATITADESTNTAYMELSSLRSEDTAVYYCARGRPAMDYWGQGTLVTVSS VL: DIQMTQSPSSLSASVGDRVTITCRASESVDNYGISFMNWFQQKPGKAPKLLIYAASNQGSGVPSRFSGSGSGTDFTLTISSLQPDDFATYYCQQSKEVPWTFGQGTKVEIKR	5.67
